Source of measurements: paper PMC12029992

# Tested on: female CD-1 mouse
# Assay explanation: IVIVE of mouse clearance from microsomes (well-stirred model, regression correction)
# Measurement setup: microsomes, Kilford fu,mic
Can you tell me Fold obs. / pred. (mic.) CL,b,u - Kilford for the items I'm about to list?
Answers are plain numbers.

Solved cases below.
{"columns": ["Compound", "Reading"],
 "data": [
  ["O=C(O)c1cc(-c2ccc(F)cc2F)ccc1O [MSC001]", 0.5],
  ["N#Cc1c[nH]c2c(C(=O)N3CCN(CCc4ccc(F)cc4)CC3)cccc12 [MSC213]", 1.7],
  ["COc1cccc(OCCCN)c1-c1cc(Nc2cnc(C#N)cn2)n[nH]1 [MSC020]", 1.3]
]}

Lab note: next compound to report on.
Problem: Look up Fold obs. / pred. (mic.) CL,b,u - Kilford: CNC(=O)c1cc(Oc2ccc3nc(N[C@@H]4CCCC[C@H]4O)sc3c2)ccn1 [MSC003]
Solution: 0.528
